The measured values listed here are drawn from paper PMC6533264.

ASSAYED_SYSTEM: T1, extracellular domain of human IL-4Rα (residues 26–232), C-terminal 6× His (human, UniProt P24394)
T1 construct: human interleukin-4 receptor alpha subunit, extracellular domain, residues 26-232; Subcloned into the pSecTag2A vector; N-glycosylated (~45 kDa, ~26 kDa after PNGase F); also called wild-type IL-4Rα; soluble IL-4Rα; source: HEK293F, transiently transfected, purified (Ni-NTA); not shown: His6, C-terminal, kept
T1 sequence (P24394 26-232): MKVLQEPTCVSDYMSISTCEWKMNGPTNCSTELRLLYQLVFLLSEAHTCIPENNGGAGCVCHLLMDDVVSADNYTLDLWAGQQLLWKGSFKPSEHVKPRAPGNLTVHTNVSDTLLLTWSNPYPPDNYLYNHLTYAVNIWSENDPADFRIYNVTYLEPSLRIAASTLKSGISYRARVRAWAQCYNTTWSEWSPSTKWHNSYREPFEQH
PROTOCOL_DETAILS: BLI; OctetRED96; Ab (1 μg/mL) captured on anti-human IgG Fc capture (AHC) biosensors at low density (0.6 to 0.8 nm), soluble monomeric IL-4Rα as analyte; 25 °C, PBS pH 7.4, 0.02% Tween 20; association 300 s, dissociation 600-900 s; 1:1 binding model
RECORDED_CONDITIONS: both partners purified
QUANTITY_KIND: koff (s⁻¹)
The reply should contain only the number, in s⁻¹.

Measured koff, 4R34.29, human IgG1 (antibody, V domains shown) VH: EVQLLESGGGLVQPGGSLRLSCAASGFTFSNYAMSWVRQAPGKGLEWVSAITAGGGSIYYADSVKGRFTISRDNSKNTLYLQMNSLRAEDTAVYYCARVHRAFDYWGQGTLVTVSS VL: QSVLTQPPSASGTPGQRVTISCSGSSSNIGSNTFNWYQQLPGTAPKLLIYADSHRPSGVPDRFSGSKSGTSASLAISGLRSEDEADYYCGTWDYSLSGYVLGGGTKLTVL : 0.00371

Let us move to another entry and its koff.
Measured koff, 4R34.19, human IgG1 (antibody, V domains shown) VH: EVQLLESGGGLVQPGGSLRLSCAASGFTFSNYAMSWVRQAPGKGLEWVSAITSSGGNIYYADSVKGRFTISRDNSKNTLYLQMNSLRAEDTAVYYCARVHRAFDYWGQGTLVTVSS VL: QSVLTQPPSASGTPGQRVTISCSGSSSNIGSNTFNWYQQLPGTAPKLLIYADSHRPSGVPDRFSGSKSGTSASLAISGLRSEDEADYYCGYWDYSLSGYVLGGGTKLTVL : 0.00243
